Source listed as patent US20050004163A1.

In this section we review reported pKi values for a set of compounds.
# Target or system: μ-opioid receptor (Rattus norvegicus, UniProt P33535)
# Construct: the forebrains are homogenized in Tris buffer in a Teflon®-glass homogenizer; from tissue; host or cells: forebrain of male Wistar rats (particulate membrane preparation)
# Sequence (P33535 whole entry): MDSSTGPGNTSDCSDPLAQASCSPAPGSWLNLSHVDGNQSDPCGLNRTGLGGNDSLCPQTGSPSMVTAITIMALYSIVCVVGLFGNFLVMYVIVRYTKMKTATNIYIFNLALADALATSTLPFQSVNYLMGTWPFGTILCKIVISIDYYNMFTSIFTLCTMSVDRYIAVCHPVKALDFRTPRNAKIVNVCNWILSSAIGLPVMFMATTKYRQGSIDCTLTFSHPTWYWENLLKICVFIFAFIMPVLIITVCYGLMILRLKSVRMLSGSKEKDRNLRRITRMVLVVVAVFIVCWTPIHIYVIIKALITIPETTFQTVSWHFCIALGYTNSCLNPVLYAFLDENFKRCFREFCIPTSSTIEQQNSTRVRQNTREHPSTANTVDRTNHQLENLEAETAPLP
# Measurement notes: Rat brain μ-opioid receptor binding assay ([3H]DAMGO)
# Test conditions: 10 nM solutions of the compounds, read-out: MOR binding Ki
Value format note: pKi is -log10 of concentration (mol/L); just state the number.

Look at this compound and give its reported pKi. CCNC(=O)c1ccc(C(=C2CC3CCC(C2)N3C(=O)OCC)c2cc(C)c(O)c(C)c2)cc1
5.68

Data request, read-out pKi, for CCNC(=O)c1ccc(C(Br)=C2CC3CCC(C2)N3Cc2ccc3ccccc3n2)cc1
7.02

Endpoint output: pKi of CCNC(=O)c1ccc(C=C2CC3CCC(C2)N3Cc2sccc2C)cc1 . Value?
6.63
